All values here come from patent US20150218281A1.

# assayed_system: T1, biotinylated hOX40L (R&D Systems, biotinylated in house) (human, UniProt P23510 51-183, biotinylated with Sulfo-NHS-LC-Biotin, sites not stated)
# T1 construct: same bought protein as m10, biotinylated; also called biotinylated OX40L
# T1 sequence: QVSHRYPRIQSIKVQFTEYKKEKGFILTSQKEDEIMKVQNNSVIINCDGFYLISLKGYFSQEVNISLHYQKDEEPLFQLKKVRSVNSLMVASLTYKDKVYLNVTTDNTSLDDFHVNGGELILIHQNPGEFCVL
# test_method_notes: AlphaScreen, 31 pM biotinylated hOX40L + 80 pM OX40/Fc
Below, each entry is listed with its recorded IC50.
Give the number first and the unit second.

OX40L01E10 (VHH, monovalent Nanobody from E. coli; not shown: C-terminal c-myc and His6 tag) VHH: EVQLVESGGGLVQAGDSLRLSCAASGLTFSSFAMGWFRQAPGKEREFVAAISRSGYGTSEADSVRDRFIISRDNAKNTVTLHLSRLKPEDTAVYYCAAEHTLGRPSRSQINYLYWGQGTQVTVSS: 0.264 nM
OX40L01E07 (VHH, monovalent Nanobody from E. coli; not shown: C-terminal c-myc and His6 tag) VHH: EVQLVESGGGLVQAGGSLRLSCAASGRTFSSIYAKGWFRQAPGKEREFVAAISRSGRSTSYADSVKGRFTISRDNAKNTVYLQMNSLKPEDTAVYYCAAVGGATTVTASEWDYWGLGTQVTVSS: 0.229 nM
OX40L19A07 (VHH, monovalent Nanobody from E. coli; not shown: C-terminal c-myc and His6 tag) VHH: EVQLVESGGGLVQAGGSLRLSCAASGFTLDDYAIAWFRQAPGKEREGVSRIKISNGRTTYAGSVKGRFTISSDNAKNTVYLQMNSLNAEDTAVYYCAADRSSLLFGSNWDRKARYDYWGQGTQVTVSS: 0.355 nM

As a next step, examine the binder that follows.
// OX40L19D08 (VHH, monovalent Nanobody from E. coli; not shown: C-terminal c-myc and His6 tag) VHH: EVQLVESGGGLVQAGASLRLSCAASGRRFISNYAMGWFRQAPGQERAFVAAISRSGSITYYTDSVKGRFSISRDYAKSTVYLQMDNLKPEDTAVYYCAADGGAVRDLTTNLPDYWGRGTQVTVSS : IC50 value = 0.133 nM
